What self-splicing fitness (ln) was measured for each of the following?
experiment: self-splicing fitness, log relative to wild type (ln ratio); higher = more splicing; Tetrahymena group I intron in knt gene, E. coli kanamycin selection, DiMSum; sequences stand for … in CUCUCU…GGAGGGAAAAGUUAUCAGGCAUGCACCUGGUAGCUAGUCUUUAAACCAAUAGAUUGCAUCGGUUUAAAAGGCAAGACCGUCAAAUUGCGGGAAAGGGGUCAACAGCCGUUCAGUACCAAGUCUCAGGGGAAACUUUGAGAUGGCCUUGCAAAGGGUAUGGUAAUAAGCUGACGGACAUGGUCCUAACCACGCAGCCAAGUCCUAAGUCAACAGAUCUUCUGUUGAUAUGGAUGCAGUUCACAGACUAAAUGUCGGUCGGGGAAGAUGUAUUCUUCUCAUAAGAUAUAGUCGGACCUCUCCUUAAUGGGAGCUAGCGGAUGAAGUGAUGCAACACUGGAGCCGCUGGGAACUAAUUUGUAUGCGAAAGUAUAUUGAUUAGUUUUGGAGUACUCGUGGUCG; conditions: 37 °C;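 note: selection with 25 µg/mL kanamycin versus none on LB agar overnight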
Answers are plain numbers.

sequenceString | number
ACGCAGCAAUAUUACGUGUU | -2.85
GCCAAGCAAUAUUACGUGCU | -1.56
AAGCAGCAAUAUUACGCACA | 0.0315

Working through the 4 sequences below one at a time, give self-splicing fitness (ln) for each.
1. CUUCAGCAAUAUUACGUACA
2. GAAUAGCAAUAUUACGUGCG
3. GUCUAGCAAUAUUACGCCCG
4. GGUAAGCAAUAUUACGCUUU

## Result
[-2.14, -0.181, -0.293, -2.02]

## Task Looking for the measured self-splicing fitness (ln) of UACCAGCAAUAUUACGGUUU , can you help?
## Result -0.463

----------
assay: self-splicing fitness, log relative to wild type (ln ratio); higher = more splicing; Tetrahymena group I intron in knt gene, E. coli kanamycin selection, DiMSum; sequences stand for … in CUCUCU…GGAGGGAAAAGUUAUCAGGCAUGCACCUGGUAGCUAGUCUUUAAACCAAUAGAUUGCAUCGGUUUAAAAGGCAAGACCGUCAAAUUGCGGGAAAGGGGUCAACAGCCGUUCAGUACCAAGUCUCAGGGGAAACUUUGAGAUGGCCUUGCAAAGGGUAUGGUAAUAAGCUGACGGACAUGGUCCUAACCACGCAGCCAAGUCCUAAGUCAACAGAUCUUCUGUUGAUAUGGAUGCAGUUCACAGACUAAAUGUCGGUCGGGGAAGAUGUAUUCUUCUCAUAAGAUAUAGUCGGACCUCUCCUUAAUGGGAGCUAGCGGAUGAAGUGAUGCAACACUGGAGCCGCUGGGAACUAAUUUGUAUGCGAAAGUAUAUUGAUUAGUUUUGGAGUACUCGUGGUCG; conditions: 30 °C
Label Not fulfilled if self-splicing fitness (ln) falls below -2; label Fulfilled in every other case.

Examples with answers:
sequenceString | classification
GUUUAGCAAUAUUACGGCUA | Fulfilled
GUCCAGCAAUAUUACGAACG | Fulfilled
CUGCAGCAAUAUUACGUGUA | Not fulfilled
UUCAAGCAAUAUUACGGAUG | Not fulfilled
UUGAAGCAAUAUUACGUUAU | Not fulfilled
CUGUAGCAAUAUUACGCCUG | Fulfilled

## Task Confirm if self-splicing fitness (ln) reported for the sequence GUACAGCAAUAUUACGACAC is -2 or above.
## Result Fulfilled

## Task Then this sequence: AAUAAGCAAUAUUACGGGUU
## Result Not fulfilled
